# SUBJECT OF TEST: hP2X7R (Homo sapiens)
# Sequence (Q99572 1-595): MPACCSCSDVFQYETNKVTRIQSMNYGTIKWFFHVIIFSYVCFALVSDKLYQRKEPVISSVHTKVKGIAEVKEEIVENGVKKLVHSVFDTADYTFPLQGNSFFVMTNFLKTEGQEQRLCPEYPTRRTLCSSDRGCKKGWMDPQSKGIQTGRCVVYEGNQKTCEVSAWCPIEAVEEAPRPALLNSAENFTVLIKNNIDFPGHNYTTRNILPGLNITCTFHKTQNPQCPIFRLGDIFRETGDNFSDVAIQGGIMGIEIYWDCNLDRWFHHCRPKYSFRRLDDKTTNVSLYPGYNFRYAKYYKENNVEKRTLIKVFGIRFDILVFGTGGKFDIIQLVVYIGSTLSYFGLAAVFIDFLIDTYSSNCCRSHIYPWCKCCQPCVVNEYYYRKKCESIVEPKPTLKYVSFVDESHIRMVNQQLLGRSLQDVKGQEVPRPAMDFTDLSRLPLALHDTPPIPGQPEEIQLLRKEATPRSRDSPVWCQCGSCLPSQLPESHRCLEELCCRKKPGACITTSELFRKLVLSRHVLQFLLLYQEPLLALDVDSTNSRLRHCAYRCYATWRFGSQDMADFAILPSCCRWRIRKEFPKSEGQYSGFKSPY
# EXPERIMENTAL PROTOCOL: Ethidium bromide accumulation in hP2X7R-expressing HEK293 cells
# Format: cell-based
# Design: expressed in transfected cells
# CONDITIONS: hP2X7R, ethidium bromide accumulation, mean ± SD, triplicate
# Method: Human P2X7R-expressing HEK293 cells were cultured in a humidified atmosphere of 5% CO2 at 37 °C in Dulbecco’s Modification of Eagle’s Medium (DMEM; Corning) supplemented with 10% (v/v) fetal bovine serum (Corning) and 1% (v/v) antibiotic–antimycotic (Gibco)[75]. […] The antagonistic activities of compounds are expressed as the percentages relative to the maximum accumulation of ethidium bromide observed in the control group with the stimulation of the hP2X7R by an agonist, BzATP. […]
Provide the recorded IC50 for the entries that follow.

// returns reported IC50 for input O=C(NNc1ccccc1Cl)C12CC3CC(CC(C3)C1)C2 [UB-ALT-P30, reference compound]
47 nM

// returns reported IC50 for input "CC12CC3CC(C)(C1)CC(C(=O)NNc1ccccc1Cl)(C3)C2"
477 nM

// returns reported IC50 for input "CC12CC3(C)CC(C)(C1)CC(C(=O)NNc1ccccc1Cl)(C2)C3"
> 1000 nM

Proceed to the following item.
// returns reported IC50 for input O=C(NNc1ccccc1Cl)C12C3C4C5C3C1C5C42 (stereo not shown)
430 nM

----------
# SUBJECT OF TEST: rP2X7R (Rattus norvegicus)
# Sequence (Q64663 1-595): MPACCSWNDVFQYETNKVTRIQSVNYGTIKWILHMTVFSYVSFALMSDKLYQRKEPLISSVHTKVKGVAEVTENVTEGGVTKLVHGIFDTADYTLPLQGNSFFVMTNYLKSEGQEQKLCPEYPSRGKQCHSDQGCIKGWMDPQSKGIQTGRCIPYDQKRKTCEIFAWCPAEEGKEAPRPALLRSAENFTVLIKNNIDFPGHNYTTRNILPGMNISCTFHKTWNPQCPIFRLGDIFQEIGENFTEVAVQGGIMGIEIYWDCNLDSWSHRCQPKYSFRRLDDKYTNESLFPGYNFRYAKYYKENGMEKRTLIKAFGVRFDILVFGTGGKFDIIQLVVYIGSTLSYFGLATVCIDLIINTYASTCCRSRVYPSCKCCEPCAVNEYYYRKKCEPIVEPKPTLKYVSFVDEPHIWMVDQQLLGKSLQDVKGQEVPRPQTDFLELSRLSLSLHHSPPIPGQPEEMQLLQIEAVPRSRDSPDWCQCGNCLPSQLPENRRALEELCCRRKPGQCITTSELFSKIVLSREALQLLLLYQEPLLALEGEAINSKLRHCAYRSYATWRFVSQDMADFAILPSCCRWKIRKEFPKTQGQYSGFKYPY
# EXPERIMENTAL PROTOCOL: TEVC dose response of ATP at rP2X7R in Xenopus oocytes
# CONDITIONS: read-out: EC50 for ATP, rP2X7R; TEVC, absence of divalent cations, mean ± SD, triplicate
MEASURED ENDPOINT: pEC50
One number for each entry, as −log10 of the molar value.

// returns reported pEC50 for input "Nc1ncnc2c1ncn2[C@@H]1O[C@H](COP(=O)(O)OP(=O)(O)OP(=O)(O)O)[C@@H](O)[C@H]1O"
4.47

----------
Provide the recorded ΔΔGexp for the entries that follow.
# SUBJECT OF TEST: hP2X7R (Homo sapiens)
# EXPERIMENTAL PROTOCOL: Ethidium bromide accumulation in hP2X7R-expressing HEK293 cells
# Assay type: cell-based
# Design: expressed in transfected cells
# CONDITIONS: relative to UB-ALT-P30, from experimental pIC50 values, T = 298 K
Give bare numbers, in kcal/mol.

Some entries whose results are on file:
// returns reported ΔΔGexp for input CC12CC3CC(C)(C1)CC(C(=O)NNc1ccccc1Cl)(C3)C2 [UB-ALT-P36]
1.43

// returns reported ΔΔGexp for input O=C(NNc1ccccc1Cl)C12C3C4C5C3C1C5C42 (centres unmarked) [UB-ALT-P38]
1.36

// returns reported ΔΔGexp for input O=C(NNc1ccccc1Cl)C12CC3CC(CC(C3)C1)C2 [UB-ALT-P30, reference compound]
0

Proceed to the following item.
// returns reported ΔΔGexp for input CC12CC3CC1(C)C1(C)CC3(C(=O)NNc3ccccc3Cl)CC21C [UB-MBX-46]
-2.37

----------
# SUBJECT OF TEST: UniProt Q9Z1M0
# Sequence (Q9Z1M0 whole entry): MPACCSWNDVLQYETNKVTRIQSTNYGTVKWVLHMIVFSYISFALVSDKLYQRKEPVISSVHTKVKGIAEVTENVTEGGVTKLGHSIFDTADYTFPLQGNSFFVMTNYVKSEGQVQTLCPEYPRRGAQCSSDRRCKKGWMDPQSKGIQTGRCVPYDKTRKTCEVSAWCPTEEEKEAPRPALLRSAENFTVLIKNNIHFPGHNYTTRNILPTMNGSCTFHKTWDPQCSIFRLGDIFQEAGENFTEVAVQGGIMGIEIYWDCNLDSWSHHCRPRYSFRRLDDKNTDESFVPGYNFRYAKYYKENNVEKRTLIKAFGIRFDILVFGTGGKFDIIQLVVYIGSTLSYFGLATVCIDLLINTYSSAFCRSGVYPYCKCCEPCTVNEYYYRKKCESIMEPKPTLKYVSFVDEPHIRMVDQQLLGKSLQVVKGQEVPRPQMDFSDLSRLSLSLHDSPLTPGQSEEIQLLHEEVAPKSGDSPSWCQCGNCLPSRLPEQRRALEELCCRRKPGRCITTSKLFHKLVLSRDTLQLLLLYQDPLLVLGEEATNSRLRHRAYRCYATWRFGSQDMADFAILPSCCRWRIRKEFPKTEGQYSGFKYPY
# EXPERIMENTAL PROTOCOL: TEVC dose response of ATP at mP2X7R in Xenopus oocytes
# CONDITIONS: read-out: EC50 for ATP, mP2X7R; TEVC, absence of divalent cations, mean ± SD, triplicate
MEASURED ENDPOINT: EC50
# answer = value followed by unit

// returns reported EC50 for input "Nc1ncnc2c1ncn2[C@@H]1O[C@H](COP(=O)(O)OP(=O)(O)OP(=O)(O)O)[C@@H](O)[C@H]1O"
70 µM

----------
# SUBJECT OF TEST: rP2X7R (Rattus norvegicus, UniProt Q64663)
# EXPERIMENTAL PROTOCOL: Calcium influx assay, 1321N1 astrocytoma cells, BzATP EC80
# Assay type: cell-based
# Design: expressed in transfected cells
# CONDITIONS: 1321N1 cells, BzATP EC80, mean ± SD
MEASURED ENDPOINT: pIC50
Answers are plain numbers, as −log10 of the molar value.

// returns reported pIC50 for input O=C(NNc1ccccc1Cl)C12CC3CC(CC(C3)C1)C2 [UB-ALT-P30, reference compound]
6.94

Proceed to the following item.
// returns reported pIC50 for input "CC12CC3CC1(C)C1(C)CC3(C(=O)NNc3ccccc3Cl)CC21C"
7.39

----------
# SUBJECT OF TEST: hP2X7R (Homo sapiens)
# Sequence (Q99572 1-595): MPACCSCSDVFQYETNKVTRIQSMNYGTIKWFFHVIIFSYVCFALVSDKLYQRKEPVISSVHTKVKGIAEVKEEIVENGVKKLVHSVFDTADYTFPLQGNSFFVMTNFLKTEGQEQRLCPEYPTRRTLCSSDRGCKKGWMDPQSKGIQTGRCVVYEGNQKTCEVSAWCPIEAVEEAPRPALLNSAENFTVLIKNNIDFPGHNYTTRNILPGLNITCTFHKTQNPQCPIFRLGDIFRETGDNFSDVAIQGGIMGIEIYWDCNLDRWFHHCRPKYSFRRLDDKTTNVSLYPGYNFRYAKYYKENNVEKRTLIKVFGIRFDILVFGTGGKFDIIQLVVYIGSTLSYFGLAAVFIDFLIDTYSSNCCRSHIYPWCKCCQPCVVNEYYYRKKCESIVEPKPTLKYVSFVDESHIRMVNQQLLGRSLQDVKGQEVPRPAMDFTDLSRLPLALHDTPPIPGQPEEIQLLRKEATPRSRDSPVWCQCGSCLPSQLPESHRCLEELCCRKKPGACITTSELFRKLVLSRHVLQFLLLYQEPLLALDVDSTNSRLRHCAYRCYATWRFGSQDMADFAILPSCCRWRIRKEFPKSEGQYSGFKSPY
# EXPERIMENTAL PROTOCOL: TEVC dose response of ATP at hP2X7R in Xenopus oocytes
# CONDITIONS: read-out: EC50 for ATP, hP2X7R; TEVC, absence of divalent cations, mean ± SD, triplicate
MEASURED ENDPOINT: EC50 (µM)
Numbers only, in µM.

// returns reported EC50 for input Nc1ncnc2c1ncn2[C@@H]1O[C@H](COP(=O)(O)OP(=O)(O)OP(=O)(O)O)[C@@H](O)[C@H]1O [ATP]
89

----------
# SUBJECT OF TEST: hP2X3R (Homo sapiens, UniProt P56373, S15V)
# Sequence (P56373 1-397 S15V): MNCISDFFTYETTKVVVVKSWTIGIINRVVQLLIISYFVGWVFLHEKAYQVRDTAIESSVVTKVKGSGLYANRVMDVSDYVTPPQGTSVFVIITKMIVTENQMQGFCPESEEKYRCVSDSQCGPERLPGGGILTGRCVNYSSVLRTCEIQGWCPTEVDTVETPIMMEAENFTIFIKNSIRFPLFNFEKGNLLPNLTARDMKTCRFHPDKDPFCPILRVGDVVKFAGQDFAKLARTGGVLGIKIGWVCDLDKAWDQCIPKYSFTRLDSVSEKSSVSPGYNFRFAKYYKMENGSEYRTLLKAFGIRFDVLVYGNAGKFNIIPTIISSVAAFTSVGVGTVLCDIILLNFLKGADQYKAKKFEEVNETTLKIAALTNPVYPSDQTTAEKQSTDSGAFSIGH
# EXPERIMENTAL PROTOCOL: Calcium influx assay, 1321N1 astrocytoma cells, ATP EC80
# CONDITIONS: calcium influx, estimated
# Source text: For 1321N1 astrocytoma cells stably expressing the human, rat, or mouse P2X7Rs, or hP2X2Rs or hP2X4Rs, the fluorescent Ca^2+-chelating dye Fluo-4 acetoxymethyl ester (Fluo-4 AM, Thermo Fisher Scientific, Dreieich, Germany) was used. For 1321N1 astrocytoma cell lines recombinantly expressing the hP2X1Rs or hP2X3Rs, the FLIPR® Calcium 5 Assay Kit (Molecular Devices, San José, CA, USA) was employed. […]
MEASURED ENDPOINT: IC50

// returns reported IC50 for input O=C(NNc1ccccc1Cl)C12CC3CC(CC(C3)C1)C2 [UB-ALT-P30, reference compound]
707 nM
